target: hCA II (Homo sapiens); construct: made in house; assay: stopped-flow CO2 hydrase assay, hCA II; assay type: biochemical; conditions: pH 7.4, mean from 3 assays
measurement kind: Ki (nM)
Write the number in nM without appending the unit.

Tell me measured Ki for CCCN1C(=CC=C2CCCC(C=CC3=[N+](CCC)c4ccccc4C3(C)C)=C2NCCc2ccc(S(N)(=O)=O)cc2)C(C)(C)c2ccccc21 please.
163

Tell me measured Ki for CN1C(=CC=C2CCCC(C=CC3=[N+](C)c4ccc5ccccc5c4C3(C)C)=C2NCCNC(=O)Nc2ccc(S(N)(=O)=O)cc2)C(C)(C)c2c1ccc1ccccc21 please.
625

###

The reader will find pKi measurements below, all made with E. coli β (Escherichia coli, UniProt P61517).
Sequence (P61517 whole entry): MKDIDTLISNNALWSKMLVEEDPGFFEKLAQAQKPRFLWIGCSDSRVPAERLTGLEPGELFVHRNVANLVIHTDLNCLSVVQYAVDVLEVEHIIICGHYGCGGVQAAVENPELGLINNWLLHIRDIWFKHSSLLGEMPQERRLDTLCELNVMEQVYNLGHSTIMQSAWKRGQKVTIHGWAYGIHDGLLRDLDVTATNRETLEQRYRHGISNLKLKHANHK
Please treat pKi as minus the base-10 logarithm of the molar concentration.

Worked set:
- input smiles: "CC1(C)C(/C=C/C2=C(NCCNC(=O)Nc3ccc(S(N)(=O)=O)cc3)C(=C/C=C3\\N(CCCCS(=O)(=O)O)c4ccc5ccccc5c4C3(C)C)/CCC2)=[N+](CCCCS(=O)(=O)[O-])c2ccc3ccccc3c21"
  pKi: 7.16
- input smiles: "CC1(C)C(/C=C/C2=C(NCCc3ccc(S(N)(=O)=O)cc3)C(=C/C=C3\\N(CCCCS(=O)(=O)O)c4ccc5ccccc5c4C3(C)C)/CCC2)=[N+](CCCCS(=O)(=O)[O-])c2ccc3ccccc3c21"
  pKi: 7.22
- input smiles: "CCCN1C(=CC=C2CCCC(C=CC3=[N+](CCC)c4ccccc4C3(C)C)=C2NCCNC(=O)Nc2ccc(S(N)(=O)=O)cc2)C(C)(C)c2ccccc21"
  pKi: 7.16
- input smiles: "CCCN1C(=CC=C2CCCC(C=CC3=[N+](CCC)c4ccccc4C3(C)C)=C2NCCc2ccc(S(N)(=O)=O)cc2)C(C)(C)c2ccccc21"
  pKi: 7.26
- input smiles: "CN1C(=CC=C2CCCC(C=CC3=[N+](C)c4ccc5ccccc5c4C3(C)C)=C2NCCc2ccc(S(N)(=O)=O)cc2)C(C)(C)c2c1ccc1ccccc21"
  pKi: 7.13

Tell me measured pKi for CN1C(=CC=C2CCCC(C=CC3=[N+](C)c4ccc5ccccc5c4C3(C)C)=C2NCCNC(=O)Nc2ccc(S(N)(=O)=O)cc2)C(C)(C)c2c1ccc1ccccc21 please.
7.19

###

target: E. coli γ (Escherichia coli, UniProt P0A9W9); assay type: biochemical; settings: stopped-flow CO2 hydrase assay, pH 8.4, mean from 3 assays
Sequence (P0A9W9 whole entry): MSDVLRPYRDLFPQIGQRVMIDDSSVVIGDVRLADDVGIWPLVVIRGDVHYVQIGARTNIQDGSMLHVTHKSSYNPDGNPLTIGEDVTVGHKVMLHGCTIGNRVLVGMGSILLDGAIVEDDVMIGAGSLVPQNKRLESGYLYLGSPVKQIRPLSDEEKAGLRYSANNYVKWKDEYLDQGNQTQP
measurement kind: Ki (nM)
Write the number in nM without appending the unit.

Worked set:
- input smiles: "CCCN1C(=CC=C2CCCC(C=CC3=[N+](CCC)c4ccccc4C3(C)C)=C2NCCNC(=O)Nc2ccc(S(N)(=O)=O)cc2)C(C)(C)c2ccccc21"
  data value: 93.5
- input smiles: "CN1C(=CC=C2CCCC(C=CC3=[N+](C)c4ccc5ccccc5c4C3(C)C)=C2NCCNC(=O)Nc2ccc(S(N)(=O)=O)cc2)C(C)(C)c2c1ccc1ccccc21"
  data value: 124
- input smiles: "CC1(C)C(/C=C/C2=C(NCCc3ccc(S(N)(=O)=O)cc3)C(=C/C=C3\\N(CCCCS(=O)(=O)O)c4ccc5ccccc5c4C3(C)C)/CCC2)=[N+](CCCCS(=O)(=O)[O-])c2ccc3ccccc3c21"
  data value: 117

Tell me measured Ki for CC1(C)C(/C=C/C2=C(NCCNC(=O)Nc3ccc(S(N)(=O)=O)cc3)C(=C/C=C3\N(CCCCS(=O)(=O)O)c4ccc5ccccc5c4C3(C)C)/CCC2)=[N+](CCCCS(=O)(=O)[O-])c2ccc3ccccc3c21 please.
111

Tell me measured Ki for CCCN1C(=CC=C2CCCC(C=CC3=[N+](CCC)c4ccccc4C3(C)C)=C2NCCc2ccc(S(N)(=O)=O)cc2)C(C)(C)c2ccccc21 please.
120

Tell me measured Ki for CN1C(=CC=C2CCCC(C=CC3=[N+](C)c4ccc5ccccc5c4C3(C)C)=C2NCCc2ccc(S(N)(=O)=O)cc2)C(C)(C)c2c1ccc1ccccc21 please.
110

###

The reader will find MIC measurements below, all made with S. epidermidis.

- input smiles: "CN1C(=CC=C2CCCC(C=CC3=[N+](C)c4ccc5ccccc5c4C3(C)C)=C2NCCNC(=O)Nc2ccc(S(N)(=O)=O)cc2)C(C)(C)c2c1ccc1ccccc21"
  MIC: "2 to 8 µg/mL"
- input smiles: "CCCN1C(=CC=C2CCCC(C=CC3=[N+](CCC)c4ccccc4C3(C)C)=C2NCCNC(=O)Nc2ccc(S(N)(=O)=O)cc2)C(C)(C)c2ccccc21"
  MIC: "4 to 16 µg/mL"
- input smiles: "CC1(C)C(/C=C/C2=C(NCCc3ccc(S(N)(=O)=O)cc3)C(=C/C=C3\\N(CCCCS(=O)(=O)O)c4ccc5ccccc5c4C3(C)C)/CCC2)=[N+](CCCCS(=O)(=O)[O-])c2ccc3ccccc3c21"
  MIC: "> 256 µg/mL"
- input smiles: "CN1C(=CC=C2CCCC(C=CC3=[N+](C)c4ccc5ccccc5c4C3(C)C)=C2NCCc2ccc(S(N)(=O)=O)cc2)C(C)(C)c2c1ccc1ccccc21"
  MIC: "1 to 4 µg/mL"
- input smiles: "CC1(C)C(/C=C/C2=C(NCCNC(=O)Nc3ccc(S(N)(=O)=O)cc3)C(=C/C=C3\\N(CCCCS(=O)(=O)O)c4ccc5ccccc5c4C3(C)C)/CCC2)=[N+](CCCCS(=O)(=O)[O-])c2ccc3ccccc3c21"
  MIC: "> 256 µg/mL"

Now examine the next entry.
Fill in: MIC on S. epidermidis, entry CCCN1C(=CC=C2CCCC(C=CC3=[N+](CCC)c4ccccc4C3(C)C)=C2NCCc2ccc(S(N)(=O)=O)cc2)C(C)(C)c2ccccc21
4 to 16 µg/mL

###

The reader will find MIC measurements below, all made with S. aureus.

Worked set:
- molecule: "CCCN1C(=CC=C2CCCC(C=CC3=[N+](CCC)c4ccccc4C3(C)C)=C2NCCc2ccc(S(N)(=O)=O)cc2)C(C)(C)c2ccccc21 [Compound 2a]"
  MIC: "8 to 32 µg/mL"
- molecule: "CN1C(=CC=C2CCCC(C=CC3=[N+](C)c4ccc5ccccc5c4C3(C)C)=C2NCCc2ccc(S(N)(=O)=O)cc2)C(C)(C)c2c1ccc1ccccc21 [Compound 2e]"
  MIC: "8 to 32 µg/mL"

Tell me measured MIC for CC1(C)C(/C=C/C2=C(NCCc3ccc(S(N)(=O)=O)cc3)C(=C/C=C3\N(CCCCS(=O)(=O)O)c4ccc5ccccc5c4C3(C)C)/CCC2)=[N+](CCCCS(=O)(=O)[O-])c2ccc3ccccc3c21 [Compound 2c] please.
> 256 µg/mL

###

Collected MIC values appear next to each entry.
test system: S. aureus

Worked set:
- input smiles: "CN1C(=CC=C2CCCC(C=CC3=[N+](C)c4ccc5ccccc5c4C3(C)C)=C2NCCNC(=O)Nc2ccc(S(N)(=O)=O)cc2)C(C)(C)c2c1ccc1ccccc21"
  data value: "16 to 64 µg/mL"
- input smiles: "CCCN1C(=CC=C2CCCC(C=CC3=[N+](CCC)c4ccccc4C3(C)C)=C2NCCNC(=O)Nc2ccc(S(N)(=O)=O)cc2)C(C)(C)c2ccccc21"
  data value: "8 to 32 µg/mL"

Now examine the next entry.
Fill in: MIC on S. aureus, entry CC1(C)C(/C=C/C2=C(NCCNC(=O)Nc3ccc(S(N)(=O)=O)cc3)C(=C/C=C3\N(CCCCS(=O)(=O)O)c4ccc5ccccc5c4C3(C)C)/CCC2)=[N+](CCCCS(=O)(=O)[O-])c2ccc3ccccc3c21
> 256 µg/mL

###

system: MRC-5 cells; test: cytotoxicity, MTT assay; assay type: cell-based, human; settings: MRC5; cytotoxicity, human lung fibroblasts, 24 h, MTT
measurement kind: IC50 (µg/mL)
Write the number in µg/mL without appending the unit.

Worked set:
- compound: "CCCN1C(=CC=C2CCCC(C=CC3=[N+](CCC)c4ccccc4C3(C)C)=C2NCCNC(=O)Nc2ccc(S(N)(=O)=O)cc2)C(C)(C)c2ccccc21 [Compound 2b]"
  tested system: "MRC-5 cells"
  IC50 (µg/mL): 82.2
- compound: "CCCN1C(=CC=C2CCCC(C=CC3=[N+](CCC)c4ccccc4C3(C)C)=C2NCCc2ccc(S(N)(=O)=O)cc2)C(C)(C)c2ccccc21 [Compound 2a]"
  tested system: "MRC-5 cells"
  IC50 (µg/mL): 38.5

Tell me measured IC50 for CN1C(=CC=C2CCCC(C=CC3=[N+](C)c4ccc5ccccc5c4C3(C)C)=C2NCCNC(=O)Nc2ccc(S(N)(=O)=O)cc2)C(C)(C)c2c1ccc1ccccc21 [Compound 2f] please.
78.8

Tell me measured IC50 for CN1C(=CC=C2CCCC(C=CC3=[N+](C)c4ccc5ccccc5c4C3(C)C)=C2NCCc2ccc(S(N)(=O)=O)cc2)C(C)(C)c2c1ccc1ccccc21 [Compound 2e] please.
2

###

Test system: human red blood cells
Test: hemolysis assay
Format: cell-based
Settings: 0.5–150 µg/mL, 30 min 37 °C, compared with 0.01% Tween 20
Procedure: Blood collected at CHU Nancy was washed three times with PBS, and 10^7 cells/mL were incubated for 30 min at 37 °C with the newly synthesized compounds. The derivatives were previously diluted to the range from 0.5 to 75/150 μg/mL with PBS. As a positive control, cells were resuspended with 0.01% polysorbate 20 (Tween 20). […] Upon incubation, the samples were centrifuged for 5 min at 800× g, and the supernatant was collected for optical density reading at 540 nm.
measurement kind: hemolysis activity, cytotoxicity to human red blood cells

Worked set:
- input smiles: "CN1C(=CC=C2CCCC(C=CC3=[N+](C)c4ccc5ccccc5c4C3(C)C)=C2NCCNC(=O)Nc2ccc(S(N)(=O)=O)cc2)C(C)(C)c2c1ccc1ccccc21"
  data value: "not cytotoxic"
- input smiles: "CCCN1C(=CC=C2CCCC(C=CC3=[N+](CCC)c4ccccc4C3(C)C)=C2NCCNC(=O)Nc2ccc(S(N)(=O)=O)cc2)C(C)(C)c2ccccc21"
  data value: "significant cytotoxicity"
- input smiles: "CCCN1C(=CC=C2CCCC(C=CC3=[N+](CCC)c4ccccc4C3(C)C)=C2NCCc2ccc(S(N)(=O)=O)cc2)C(C)(C)c2ccccc21"
  data value: "not cytotoxic"
- input smiles: "CC1(C)C(/C=C/C2=C(NCCc3ccc(S(N)(=O)=O)cc3)C(=C/C=C3\\N(CCCCS(=O)(=O)O)c4ccc5ccccc5c4C3(C)C)/CCC2)=[N+](CCCCS(=O)(=O)[O-])c2ccc3ccccc3c21"
  data value: "significant cytotoxicity"

Tell me measured hemolysis activity, cytotoxicity to human red blood cells for CN1C(=CC=C2CCCC(C=CC3=[N+](C)c4ccc5ccccc5c4C3(C)C)=C2NCCc2ccc(S(N)(=O)=O)cc2)C(C)(C)c2c1ccc1ccccc21 please.
not cytotoxic

Tell me measured hemolysis activity, cytotoxicity to human red blood cells for CC1(C)C(/C=C/C2=C(NCCNC(=O)Nc3ccc(S(N)(=O)=O)cc3)C(=C/C=C3\N(CCCCS(=O)(=O)O)c4ccc5ccccc5c4C3(C)C)/CCC2)=[N+](CCCCS(=O)(=O)[O-])c2ccc3ccccc3c21 please.
significant cytotoxicity
